target or test system: Recombinant STAT6 protein (STAT6 (W123-T658)) (Homo sapiens, UniProt P42226)
Construct: Recombinant STAT6 protein (STAT6 (W123-T658))
Sequence (P42226 123-658): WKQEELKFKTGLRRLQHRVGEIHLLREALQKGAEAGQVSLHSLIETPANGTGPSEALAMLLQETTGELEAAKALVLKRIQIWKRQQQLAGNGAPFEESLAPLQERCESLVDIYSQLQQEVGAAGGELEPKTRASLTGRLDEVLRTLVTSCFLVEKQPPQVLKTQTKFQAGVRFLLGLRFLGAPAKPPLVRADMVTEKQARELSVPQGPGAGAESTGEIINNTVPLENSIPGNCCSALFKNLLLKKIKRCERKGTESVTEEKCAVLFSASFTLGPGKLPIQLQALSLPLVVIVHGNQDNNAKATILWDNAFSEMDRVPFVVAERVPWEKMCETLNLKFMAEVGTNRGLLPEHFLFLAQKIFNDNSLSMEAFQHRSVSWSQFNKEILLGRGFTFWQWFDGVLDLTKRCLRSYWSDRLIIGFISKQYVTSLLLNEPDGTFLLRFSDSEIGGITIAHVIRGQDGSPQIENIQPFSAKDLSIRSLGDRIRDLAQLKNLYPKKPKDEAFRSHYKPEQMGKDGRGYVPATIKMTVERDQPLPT
procedure details: STAT6 Fluorescence Polarization (FP) Assay
Type: binding
measurement conditions: STAT6 250 nM, probe 5-FAM-Ap[…]-NH2 2 nM, 45-minute incubation; read-out: STAT6 (FP assay IC50)
pIC50: −log10 of the molar value.
measured parameter: pIC50

# example entries with known answers
CN(C)S(=O)(=O)N1CCN(C(=O)[C@@H]2CC[C@@H]3CCCC[C@H](NC(=O)c4cc5cc(C(F)(F)P(=O)(O)O)ccc5s4)C(=O)N32)CC1    5.52 to 6.52
O=C(N[C@H]1CCCCC[C@H]2[C@H](O)C[C@@H](C(=O)N3CC(C(=O)N4CCOCC4)C3)N2C1=O)c1cc2cc(C(F)(F)P(=O)(O)O)ccc2s1    4.52 to 5.52

Proceed to the following item.
Q: Request: pIC50, test system Recombinant STAT6 protein (STAT6 (W123-T658)) (Homo sapiens, UniProt P42226), entry `O=C(N[C@H]1CCCC[C@H]2CC[C@@H](C(=O)N3CC(F)(c4ccccc4)C3)N2C1=O)c1cc2cc(C(F)(F)P(=O)(O)O)ccc2s1`
Ans: 5.52 to 6.52

###

target or test system: Recombinant STAT6 protein (STAT6 (W123-T658)) (Homo sapiens)
Construct: Recombinant STAT6 protein (STAT6 (W123-T658))
procedure details: STAT6 Fluorescence Polarization (FP) Assay
Type: binding
measurement conditions: STAT6 (W123-T658) 250 nM, probe 5-FAM-Ap[…]-NH2 2 nM, 45-minute incubation; read-out: STAT6 (FP assay IC50 class)
measured parameter: IC50

Cc1ncccc1C1CN(C(=O)[C@@H]2CC[C@@H]3CCC[C@H](NC(=O)c4cc5cc(C(F)(F)P(=O)(O)O)ccc5s4)C(=O)N32)C1    0.3 to 3 µM
O=C(N[C@H]1CCC[C@H]2CC[C@@H](C(=O)N3CCC(c4cccnc4)C3)N2C1=O)c1cc2cc(CP(=O)(O)O)ccc2s1 (stereo partly drawn)    3 to 30 µM
O=C(N[C@H]1CCC[C@H]2CC[C@@H](C(=O)NCc3cnc4[nH]cnc4c3)N2C1=O)c1cc2cc(C(F)(F)P(=O)(O)O)ccc2s1    0.3 to 3 µM
COC1(c2cnccc2C)CN(C(=O)[C@@H]2CC[C@@H]3CCC[C@H](NC(=O)c4cc5cc(C(F)(F)P(=O)(O)O)ccc5s4)C(=O)N32)C1    3 to 30 µM

Q: Please report the recorded IC50 for `CN(C)c1ncncc1C1CN(C(=O)[C@@H]2CC[C@@H]3CCC[C@H](NC(=O)c4cc5cc(CP(=O)(O)O)ccc5s4)C(=O)N32)C1` .
Ans: 3 to 30 µM

Q: I have this compound here, O=C(N[C@H]1CCCC[C@H]2CC[C@@H](C(=O)N3CCC(c4cccnc4)C3)N2C1=O)c1ccc2ccc(C(F)(F)P(=O)(O)O)cc2c1 (stereo partly drawn) , and I need its recorded IC50.
Ans: ≤ 0.3 µM

###

target or test system: Recombinant STAT6 protein (STAT6 (W123-T658)) (Homo sapiens, UniProt P42226)
Construct: Recombinant STAT6 protein (STAT6 (W123-T658))
procedure details: STAT6 Fluorescence Polarization (FP) Assay
Format: binding
measurement conditions: STAT6 (W123-T658) 250 nM, probe 5-FAM-Ap[…]-NH2 2 nM, 45-minute incubation; read-out: STAT6 (FP assay IC50 class)
measured parameter: IC50

Consider the worked cases shown below.
O=C(N[C@H]1CCC[C@H]2CC[C@@H](C(=O)N3CC(c4cc(O)ccn4)C3)N2C1=O)c1cc2cc(CP(=O)(O)O)ccc2s1 [Compound 543]    3 to 30 µM
C[C@H]1CC[C@H](NC(=O)c2cc3cc(CP(=O)(O)O)ccc3s2)C(=O)N2[C@H](CC[C@H]2C(=O)N2CC(c3cnccc3F)C2)C1 [Compound 585]    3 to 30 µM
O=C(N[C@H]1CCCC[C@H]2CC[C@@H](C(=O)N3CC(OCC(F)F)(c4cccnc4)C3)N2C1=O)c1cc2cc(C(F)P(=O)(O)O)ccc2s1 (stereo partly drawn) [Compound 616]    3 to 30 µM
O=C(N[C@H]1CCCC[C@H]2CC[C@@H](C(=O)N3CCC(c4ccccn4)CC3)N2C1=O)c1cc2cc(C(F)P(=O)(O)O)ccc2s1 (stereo partly drawn) [Compound 579]    3 to 30 µM
Cc1ccncc1C1CN(C(=O)[C@@H]2CC[C@@H]3CCCC[C@H](NC(=O)c4cc5cc(C(F)(F)P(=O)(O)O)ccc5s4)C(=O)N32)C1 [Compound 499]    0.3 to 3 µM

Q: May I ask what IC50 has been recorded for CC(C)Oc1ccncc1C1CN(C(=O)[C@@H]2CC[C@@H]3CCC[C@H](NC(=O)c4cc5cc(C(F)P(=O)(O)O)ccc5s4)C(=O)N32)C1 (stereo partly drawn) [Compound 612] ?
Ans: 3 to 30 µM
